Provide the reported pKd of each item.
Assayed system: WDR9(2) (Homo sapiens)
Sequence (Q9NSI6 1313-1418 limits assumed): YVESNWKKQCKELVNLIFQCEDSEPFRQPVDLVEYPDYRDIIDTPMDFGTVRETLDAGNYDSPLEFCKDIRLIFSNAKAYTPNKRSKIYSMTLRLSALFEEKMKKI
Method description: BROMOscan ligand-binding assay
Measurement conditions: BROMOscan, WDR9(2)
pKd: −log10 of the molar value.

Would you be so kind as to report pKd for each listed record?
1. O=C(C=CN1[C@H]2CC[C@@H]1c1ncnc(NC3CC3)c1C2)c1ccccc1O [PFI-3 D1]
2. Cc1cc(=O)n(C)c2cc(N3C(=O)CC[C@H](NS(=O)(=O)CC(C)C)[C@H]3c3ccc(Cl)cc3)ccc12 [LP-99]

Return:
1: < 4.52; 2: < 4.30

====

Assayed system: HAT1 (Homo sapiens, UniProt O14929)
Sequence (O14929 whole entry, species assumed): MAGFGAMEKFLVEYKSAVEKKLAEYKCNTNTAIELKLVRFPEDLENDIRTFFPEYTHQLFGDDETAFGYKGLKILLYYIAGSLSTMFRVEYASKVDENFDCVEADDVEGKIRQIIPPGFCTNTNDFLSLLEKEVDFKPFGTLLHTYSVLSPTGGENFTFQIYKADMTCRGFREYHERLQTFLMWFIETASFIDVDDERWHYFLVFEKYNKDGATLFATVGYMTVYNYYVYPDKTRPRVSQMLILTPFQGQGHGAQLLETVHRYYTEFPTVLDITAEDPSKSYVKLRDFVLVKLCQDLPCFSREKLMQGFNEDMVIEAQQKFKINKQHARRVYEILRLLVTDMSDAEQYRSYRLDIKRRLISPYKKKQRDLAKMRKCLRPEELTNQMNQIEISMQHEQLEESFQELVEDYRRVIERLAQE
Method description: Histone acetyltransferase (HAT) activity assay;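 also: HAT selectivity screen of BRD probe compounds, enzyme activity in % measured with compound at 1 µM and 10 µM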
Type: biochemical
Measurement conditions: 10µM; read-out: HATs Activity (%)
Observed property: activity at 10 µM (%)
Give bare numbers, in %.

Sample answers from the record:
O=C(C=CN1CC2CC1CN2c1ccccn1)c1ccccc1O (stereo not shown) = 94
CN1C[C@H](Nc2cnn(C)c(=O)c2Br)C[C@H](c2ccccc2)C1 = 89
COc1cc(-c2cn(C)c(=O)c3cnccc23)c(OC)cc1CN(C)C = 96
COc1cc(Cl)c(C(=O)N[C@@H](CN[C@H]2CC[C@@H](N)CC2)Cc2ccc(C#N)cc2)cc1-c1ccc(CN[C@H](C)c2ccc(C)cc2)o1 = 101
CCC(=O)N1CCOc2c(cc(-c3ccc(OC)c(OC)c3)cc2OCC2CCCN(C)C2)C1 (stereo not shown) = 94
Cc1cc2c(cc1N1C(=O)c3cccc4c(CCCO)ccc(c34)C1=O)n(C)c(=O)n2C = 93

For each listed entry, give its activity at 10 µM.
1. COc1ccc(CCc2nc3cc(-c4c(C)noc4C)ccc3n2C[C@H](C)N2CCOCC2)cc1Cl
2. CO[C@H]1CNC[C@@H](OCC2CCC(F)(F)CC2)[C@@H]1Nc1ncc(-c2cncc(C)c2)c2cc(C)c(=O)[nH]c12

Return:
1. 97
2. 95

====

Assayed system: BRD2(2) (Homo sapiens, UniProt P25440)
Sequence (P25440 344-453 limits assumed): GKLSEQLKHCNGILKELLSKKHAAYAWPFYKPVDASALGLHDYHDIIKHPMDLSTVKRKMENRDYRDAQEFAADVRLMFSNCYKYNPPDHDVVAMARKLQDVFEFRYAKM
Method description: BROMOscan ligand-binding assay
Measurement conditions: BRD2(2)
Observed property: pKd
Give bare numbers, as −log10 of the molar value.

Enquiry: So what's the measured pKd for this one? COc1cc2c(cc1NS(=O)(=O)c1ccc(Br)cc1C)n(C)c(=O)n2C [OF-1]
Return: 5.00

====

Assayed system: BRD7 (Homo sapiens)
Sequence (Q9NPI1 131-235 limits assumed): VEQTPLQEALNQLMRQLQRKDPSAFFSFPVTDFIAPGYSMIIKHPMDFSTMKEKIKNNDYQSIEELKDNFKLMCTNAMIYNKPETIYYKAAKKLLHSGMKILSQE
Method description: BROMOscan ligand-binding assay
Measurement conditions: KD (BROMOscan), sheet prints no unit (nM)
Observed property: Kd

Enquiry: Checklist item: Kd tested on BRD7 (Homo sapiens), entry O=C(C=CN1CC2CC1CN2c1ccccn1)c1ccccc1O (stereo not shown) [PFI-3] , value?
Return: > 30000 nM

====

Assayed system: BRD4(2) (Homo sapiens, UniProt O60885)
Method description: BROMOscan ligand-binding assay
Measurement conditions: read-out: KD (BROMOscan); sheet prints no unit (nM)
Observed property: Kd

Enquiry: Name the reported Kd value associated with the molecule `COc1cc(C#N)ccc1S(=O)(=O)Nc1ccc2c(c1)cc(C)c(=O)n2C`
Return: > 30000 nM

====

Assayed system: UniProt:O15164
Sequence (O15164 824-1006 limits assumed): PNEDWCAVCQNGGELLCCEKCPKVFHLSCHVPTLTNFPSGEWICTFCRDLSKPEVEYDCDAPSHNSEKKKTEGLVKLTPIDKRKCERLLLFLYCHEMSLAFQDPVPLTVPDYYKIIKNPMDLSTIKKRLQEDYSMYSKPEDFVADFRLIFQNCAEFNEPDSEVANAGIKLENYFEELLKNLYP
Method description: BROMOscan ligand-binding assay
Measurement conditions: KD, BROMOscan Gene Symbol TRIM24(PHD,Bromo.)
Observed property: Kd (µM)
Give bare numbers, in µM.

Enquiry: # Kd lookup, item `CCCOc1ccn2c(C(C)=O)cc(-c3ccccc3S(C)(=O)=O)c2c1`
Return: 33
